MEASURED TARGET: NR1/NR2C (Homo sapiens, UniProt Q05586+Q14957)
Sequence (Q14957 20-1233, species assumed, other chains not shown): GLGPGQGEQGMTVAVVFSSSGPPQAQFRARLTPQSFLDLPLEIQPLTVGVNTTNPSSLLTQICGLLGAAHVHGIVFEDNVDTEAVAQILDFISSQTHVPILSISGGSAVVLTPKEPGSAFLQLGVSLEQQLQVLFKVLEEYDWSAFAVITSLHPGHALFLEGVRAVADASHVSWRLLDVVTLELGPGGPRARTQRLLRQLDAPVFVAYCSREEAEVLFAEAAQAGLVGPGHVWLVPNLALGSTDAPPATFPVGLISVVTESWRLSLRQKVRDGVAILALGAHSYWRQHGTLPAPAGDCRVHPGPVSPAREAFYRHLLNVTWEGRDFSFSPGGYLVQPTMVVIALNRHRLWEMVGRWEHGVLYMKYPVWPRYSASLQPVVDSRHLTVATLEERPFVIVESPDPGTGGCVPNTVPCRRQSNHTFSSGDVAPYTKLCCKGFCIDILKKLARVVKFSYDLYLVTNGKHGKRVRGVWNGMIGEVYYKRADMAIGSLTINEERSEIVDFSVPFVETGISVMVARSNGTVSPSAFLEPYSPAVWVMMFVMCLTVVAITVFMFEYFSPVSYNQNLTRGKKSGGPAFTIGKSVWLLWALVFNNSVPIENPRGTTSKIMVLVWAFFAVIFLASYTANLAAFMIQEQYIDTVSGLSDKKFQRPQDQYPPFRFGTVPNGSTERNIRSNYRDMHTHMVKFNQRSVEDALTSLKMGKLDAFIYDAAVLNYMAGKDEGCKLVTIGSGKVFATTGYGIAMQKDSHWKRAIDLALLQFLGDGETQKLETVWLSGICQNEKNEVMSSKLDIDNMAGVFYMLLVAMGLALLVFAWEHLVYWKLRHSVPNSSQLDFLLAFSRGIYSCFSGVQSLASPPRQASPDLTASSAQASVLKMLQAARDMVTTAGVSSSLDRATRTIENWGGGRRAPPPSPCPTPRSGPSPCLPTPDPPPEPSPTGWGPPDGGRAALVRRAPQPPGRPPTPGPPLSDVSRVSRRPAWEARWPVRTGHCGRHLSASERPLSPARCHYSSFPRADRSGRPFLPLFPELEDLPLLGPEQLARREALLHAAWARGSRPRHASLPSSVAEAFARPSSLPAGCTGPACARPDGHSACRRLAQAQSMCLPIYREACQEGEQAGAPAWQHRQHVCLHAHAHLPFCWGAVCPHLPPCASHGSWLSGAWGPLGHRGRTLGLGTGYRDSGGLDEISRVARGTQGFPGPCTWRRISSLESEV
METHOD NOTES: Two electrode voltage clamp, Xenopus laevis oocytes expressing NR1/NR2C
ASSAY CONTEXT: fitted to composite concentration-effect data; read-out: 2C IC50
The reader will find reported pIC50 values listed item by item below.
// pIC50: -log10(molar conc.)

[[record]]
compound = "COc1ccc(OCC2c3cc(OC)c(OC)cc3CCN2C(=O)c2cccc(Br)c2)cc1 (stereo not drawn)"
result_value = 6.00

[[record]]
compound = "CC(C)(C)c1ccc(C(=O)Nc2sc3c(c2C(=O)O)CCC3)cc1"
result_value = 4.11


Prompt: Record lookup: for NR1/NR2C (Homo sapiens, UniProt Q05586+Q14957), what pIC50 belongs to COc1ccc(OCC2c3cc(OC)c(OC)cc3CCN2C(=O)c2cccc(Cl)c2Cl)cc1 (stereo not drawn) ?
Completion: 5.70

Prompt: Likewise for COc1ccc(OCC2c3c(cc(OC)cc3OC)CCN2C(=O)c2ccccc2)cc1 (stereo not drawn) ?
Completion: 5.00

Prompt: Likewise for `CC(C)(C)c1ccc(CSc2nc(N)cc(O)n2)cc1` ?
Completion: 4.41

Prompt: Likewise for `Cc1sc(NC(=O)c2ccc(C(C)(C)C)cc2)c(C(=O)O)c1C` ?
Completion: 4.48

Prompt: Likewise for `CC(C)(C)c1ccc(C(=O)Nc2scc(-c3ccccc3)c2C(=O)O)cc1` ?
Completion: 4.35

Prompt: Likewise for COc1ccc(OCC2c3cc4c(cc3CCN2C(=O)c2cccc(Cl)c2)OCO4)cc1 (stereo not drawn) ?
Completion: 4.92

Prompt: Likewise for COc1ccc(OCC2c3c(cc(OC)cc3OC)CCN2C(=O)c2cccc(Cl)c2)cc1 (stereo not drawn) ?
Completion: 4.96

Prompt: Likewise for CCc1ccc(OCC2c3cc(OC)c(OC)cc3CCN2C(=O)c2ccccc2)cc1 (stereo not drawn) ?
Completion: 5.52

Prompt: Likewise for `COc1ccc(-c2csc(NC(=O)c3ccc(C(C)(C)C)cc3)c2C(=O)O)cc1` ?
Completion: 4.38

Prompt: Likewise for COc1ccc(OCC2c3cc(OC)c(OC)cc3CCN2C(=O)c2cccc(F)c2)cc1 (stereo not drawn) ?
Completion: 5.15

Prompt: Likewise for COc1ccc(OCC2c3cc(OC)c(OC)cc3CCN2C(=O)c2cccc(C(F)(F)F)c2)cc1 (stereo not drawn) ?
Completion: 5.70

Prompt: Likewise for COc1ccc(OCC2c3ccc(OC)cc3CCN2C(=O)c2cccc(Br)c2)cc1 (stereo not drawn) ?
Completion: 6.00

Prompt: Likewise for COc1ccc(OCC2c3cc(OC)c(OC)cc3CCN2C(=O)c2ccc(Cl)cc2)cc1 (stereo not drawn) ?
Completion: 5.40

Prompt: Likewise for COc1ccc(OCC2c3cc(OC)c(OC)cc3CCN2C(=O)c2cccc(Cl)c2)cc1 (stereo not drawn) ?
Completion: 5.52

###

The reader will find reported activity at 100 µM values listed item by item below.
MEASURED TARGET: NR1/NR2A (Homo sapiens, UniProt Q12879)
Construct: expressed in transfected cells; host or cells: Xenopus laevis oocytes
Sequence (Q12879 23-1464, species assumed, other chains not shown): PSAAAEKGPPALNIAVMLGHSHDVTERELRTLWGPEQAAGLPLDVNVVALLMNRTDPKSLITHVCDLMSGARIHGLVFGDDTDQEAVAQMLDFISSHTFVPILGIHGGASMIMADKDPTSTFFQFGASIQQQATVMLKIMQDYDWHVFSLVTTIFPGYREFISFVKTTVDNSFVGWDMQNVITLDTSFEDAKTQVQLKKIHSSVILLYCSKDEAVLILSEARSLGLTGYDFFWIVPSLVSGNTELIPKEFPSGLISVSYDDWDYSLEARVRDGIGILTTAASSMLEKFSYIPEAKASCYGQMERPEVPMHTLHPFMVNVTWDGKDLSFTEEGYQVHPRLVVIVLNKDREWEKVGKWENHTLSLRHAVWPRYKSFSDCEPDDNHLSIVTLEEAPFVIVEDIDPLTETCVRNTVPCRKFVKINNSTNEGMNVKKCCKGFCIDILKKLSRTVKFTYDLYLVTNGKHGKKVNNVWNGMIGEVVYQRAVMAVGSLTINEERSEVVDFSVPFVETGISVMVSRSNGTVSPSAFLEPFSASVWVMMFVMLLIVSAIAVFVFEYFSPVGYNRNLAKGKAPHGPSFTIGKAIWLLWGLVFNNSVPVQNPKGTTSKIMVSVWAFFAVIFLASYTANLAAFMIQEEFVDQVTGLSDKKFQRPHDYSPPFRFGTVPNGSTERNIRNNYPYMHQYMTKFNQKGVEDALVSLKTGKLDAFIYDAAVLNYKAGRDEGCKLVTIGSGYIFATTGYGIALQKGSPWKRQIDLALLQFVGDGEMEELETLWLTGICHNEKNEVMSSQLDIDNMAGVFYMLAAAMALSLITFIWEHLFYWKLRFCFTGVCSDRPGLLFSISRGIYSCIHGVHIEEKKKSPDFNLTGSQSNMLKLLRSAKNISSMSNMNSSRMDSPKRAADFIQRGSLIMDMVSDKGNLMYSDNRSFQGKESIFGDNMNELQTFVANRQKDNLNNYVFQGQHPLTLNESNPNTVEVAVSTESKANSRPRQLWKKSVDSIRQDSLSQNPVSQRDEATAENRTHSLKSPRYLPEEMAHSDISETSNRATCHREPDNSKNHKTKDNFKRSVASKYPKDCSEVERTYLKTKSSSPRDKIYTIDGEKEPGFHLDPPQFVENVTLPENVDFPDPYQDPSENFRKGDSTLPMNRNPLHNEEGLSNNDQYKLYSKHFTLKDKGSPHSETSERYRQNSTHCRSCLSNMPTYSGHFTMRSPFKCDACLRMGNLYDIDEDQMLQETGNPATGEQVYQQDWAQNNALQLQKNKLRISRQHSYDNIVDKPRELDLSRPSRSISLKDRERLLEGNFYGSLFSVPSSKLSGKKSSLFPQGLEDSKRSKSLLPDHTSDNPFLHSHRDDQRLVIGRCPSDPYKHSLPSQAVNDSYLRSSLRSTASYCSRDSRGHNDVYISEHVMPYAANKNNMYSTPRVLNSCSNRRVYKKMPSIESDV
METHOD NOTES: Two electrode voltage clamp, Xenopus laevis oocytes expressing NR1/NR2A
Format: cell-based
ASSAY CONTEXT: at 100 μM; read-out: 2A percent effect at the maximum tested concentration
Lab book: enter the figure in %, no units written.

Observe how each entry below is paired with its result.
[[record]]
molecule = "Cc1csc(C(=O)O)c1NC(=O)c1ccc(C(C)(C)C)cc1"
observation_type = "activity at 100 µM"
measurement_units = "%"
result_value = 105

[[record]]
molecule = "CC(C)(C)c1ccc(CSc2nc(N)cc(O)n2)cc1"
observation_type = "activity at 100 µM"
measurement_units = "%"
result_value = 91

[[record]]
molecule = "COc1ccc(OCC2c3ccc(OC)cc3CCN2C(=O)c2cccc(Cl)c2)cc1 (stereo not drawn)"
observation_type = "activity at 100 µM"
measurement_units = "%"
result_value = 93

[[record]]
molecule = "COc1ccc(OCC2c3cc(OC)c(OC)cc3CCN2C(=O)c2cccc([N+](=O)[O-])c2)cc1 (stereo not drawn)"
observation_type = "activity at 100 µM"
measurement_units = "%"
result_value = 50

[[record]]
molecule = "Cc1sc(NC(=O)c2ccc(C(C)(C)C)cc2)c(C(=O)O)c1C"
observation_type = "activity at 100 µM"
measurement_units = "%"
result_value = 99


Please find the next molecule below.
Prompt: Reported activity at 100 µM, molecule COc1ccc(OCC2c3cc(OC)c(OC)cc3CCN2C(=O)c2ccco2)cc1 (stereo not drawn) : ____
Completion: 105

###

The reader will find reported Emax values listed item by item below.
MEASURED TARGET: NR1/NR2D (Homo sapiens, UniProt O15399+Q05586)
Sequence (O15399 28-1336, species assumed, other chains not shown): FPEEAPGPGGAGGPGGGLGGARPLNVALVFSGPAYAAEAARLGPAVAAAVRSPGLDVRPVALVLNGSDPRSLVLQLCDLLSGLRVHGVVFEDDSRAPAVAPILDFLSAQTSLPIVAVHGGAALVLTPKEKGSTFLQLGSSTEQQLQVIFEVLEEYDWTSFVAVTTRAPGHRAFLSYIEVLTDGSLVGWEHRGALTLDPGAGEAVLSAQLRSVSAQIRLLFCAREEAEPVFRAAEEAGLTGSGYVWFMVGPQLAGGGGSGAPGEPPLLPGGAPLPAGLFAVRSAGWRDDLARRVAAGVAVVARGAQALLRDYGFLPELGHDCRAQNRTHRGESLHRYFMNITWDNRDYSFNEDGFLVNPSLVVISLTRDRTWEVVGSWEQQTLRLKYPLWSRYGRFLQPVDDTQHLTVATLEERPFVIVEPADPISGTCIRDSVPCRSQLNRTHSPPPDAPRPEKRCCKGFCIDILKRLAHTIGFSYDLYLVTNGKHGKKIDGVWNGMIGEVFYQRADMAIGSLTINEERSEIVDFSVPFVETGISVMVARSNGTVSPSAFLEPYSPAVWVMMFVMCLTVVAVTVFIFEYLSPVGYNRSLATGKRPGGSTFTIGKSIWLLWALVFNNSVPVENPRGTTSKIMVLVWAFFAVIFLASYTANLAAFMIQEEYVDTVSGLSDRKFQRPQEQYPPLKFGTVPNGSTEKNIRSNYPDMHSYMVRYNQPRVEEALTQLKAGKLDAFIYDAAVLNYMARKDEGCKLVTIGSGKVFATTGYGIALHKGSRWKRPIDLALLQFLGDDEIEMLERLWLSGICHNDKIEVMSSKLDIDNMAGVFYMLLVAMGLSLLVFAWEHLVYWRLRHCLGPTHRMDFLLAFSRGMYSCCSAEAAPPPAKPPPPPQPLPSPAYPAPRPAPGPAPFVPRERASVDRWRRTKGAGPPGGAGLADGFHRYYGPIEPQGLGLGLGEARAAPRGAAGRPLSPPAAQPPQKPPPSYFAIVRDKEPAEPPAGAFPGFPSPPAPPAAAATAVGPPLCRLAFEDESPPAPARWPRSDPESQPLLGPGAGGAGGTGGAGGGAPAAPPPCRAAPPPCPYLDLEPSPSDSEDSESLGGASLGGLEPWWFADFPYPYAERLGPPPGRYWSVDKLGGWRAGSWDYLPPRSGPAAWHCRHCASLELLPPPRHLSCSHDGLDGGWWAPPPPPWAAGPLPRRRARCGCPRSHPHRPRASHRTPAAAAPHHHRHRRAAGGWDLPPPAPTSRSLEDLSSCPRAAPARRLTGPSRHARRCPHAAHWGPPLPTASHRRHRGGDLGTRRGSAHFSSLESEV
METHOD NOTES: Two electrode voltage clamp, Xenopus laevis oocytes expressing NR1/NR2D
ASSAY CONTEXT: read-out: 2D Max
Lab book: enter the figure in %, no units written.

Observe how each entry below is paired with its result.
[[record]]
compound = "COc1ccc(OCC2c3cc(OC)c(OC)cc3CCN2C(=O)c2cccc(Br)c2)cc1 (stereo not shown) [compound 1391]"
measured_target = "NR1/NR2D (Homo sapiens, UniProt O15399+Q05586)"
observation_type = "Emax"
result_value = 188

[[record]]
compound = "CC(C)(C)c1ccc(C(=O)Nc2scc(-c3ccccc3)c2C(=O)O)cc1 [compound 1406]"
measured_target = "NR1/NR2D (Homo sapiens, UniProt O15399+Q05586)"
observation_type = "Emax"
result_value = 351

[[record]]
compound = "COc1ccc(OCC2c3c(cc(OC)cc3OC)CCN2C(=O)c2cccc(Br)c2)cc1 (stereo not shown) [1180-21]"
measured_target = "NR1/NR2D (Homo sapiens, UniProt O15399+Q05586)"
observation_type = "Emax"
result_value = 230


Prompt: Reported Emax, compound CSC1=NCCN1C(=O)c1ccc(C(C)(C)C)cc1 [compound 1343] : ____
Completion: 480

###

The reader will find reported activity at 100 µM values listed item by item below.
MEASURED TARGET: NR1/NR2C (Homo sapiens, UniProt Q05586+Q14957)
Construct: expressed in transfected cells; host or cells: Xenopus laevis oocytes
METHOD NOTES: Two electrode voltage clamp, Xenopus laevis oocytes expressing NR1/NR2C
Format: cell-based
ASSAY CONTEXT: at 100 μM; read-out: 2C percent effect at the maximum tested concentration
Description: Values are mean+SEM (n=14-20). […] C is the closed level; broken line is the open level. The Hill slope at both receptors for all analogues was greater than 1, consistent with a cooperative effect of binding at two sites. In the table above, potency is expressed as fitted EC50 value to average composite concentration-effect data constructed from current responses recorded under two electrode voltage clamp from Xenopus laevis oocytes expressing either NR1/NR2A, B, C, or D, GluR1, or GluR6. […]
Lab book: enter the figure in %, no units written.

[[record]]
compound = "O=C(O)C1=C(NC(=O)c2ccc(Br)cc2)SC2CCCC12 (stereo not shown)"
result_value = 99

[[record]]
compound = "Cc1cc(NC(=O)c2ccc(C(C)(C)C)cc2)no1"
result_value = 97

[[record]]
compound = "COc1cc2c(cc1OC)C(COc1ccc(OCc3ccccc3)cc1)N(C(=O)c1cccc(Cl)c1)CC2 (stereo not shown)"
result_value = 79

[[record]]
compound = "COc1ccc(OCC2c3cc(OC)c(OC)cc3CCN2C(=O)c2cccc(O)c2)cc1 (stereo not shown)"
result_value = 81

[[record]]
compound = "CC(C)(C)c1ccc(C(=O)Nc2scc(-c3ccc(Br)cc3)c2C(=O)O)cc1"
result_value = 103


Prompt: Reported activity at 100 µM, compound COc1ccc(OCC2c3cc(OC)c(OC)cc3CCN2C(=O)c2ccco2)cc1 (stereo not shown) : ____
Completion: 100

Prompt: Likewise for COc1ccc(OCC2c3cc(OC)c(OC)cc3CCN2C(=O)CN2CCOCC2)cc1 (stereo not shown) ?
Completion: 79

Prompt: Likewise for COc1ccc(OCC2c3cc(OC)c(OC)cc3CCN2C(=O)c2ccccn2)cc1 (stereo not shown) ?
Completion: 76

Prompt: Likewise for `Cc1ccc(C(=O)Nc2sc(C)cc2C(=O)O)cc1` ?
Completion: 95

Prompt: Likewise for `CC(C)c1ccc(C(=O)Nc2sccc2C(=O)O)cc1` ?
Completion: 82

Prompt: Likewise for COc1ccc(OCC2c3cc(OC)c(OC)cc3CCN2C(=O)c2cccnc2)cc1 (stereo not shown) ?
Completion: 82

Prompt: Likewise for `Cc1ccnc(NC(=O)c2ccc(C(C)(C)C)cc2)c1` ?
Completion: 87

Prompt: Likewise for `CCc1ccc(C(=O)Nc2sccc2C(=O)O)cc1` ?
Completion: 83

Prompt: Likewise for `COc1cc2c(cc1OC)CN(C(=O)c1ccccc1)CC2` ?
Completion: 78

###

The reader will find reported activity at 100 µM values listed item by item below.
MEASURED TARGET: NR1/NR2D (Homo sapiens, UniProt O15399+Q05586)
METHOD NOTES: Two electrode voltage clamp, Xenopus laevis oocytes expressing NR1/NR2D
ASSAY CONTEXT: read-out: 2D percent effect at the maximum tested concentration, at 100 μM

Observe how each entry below is paired with its result.
[[record]]
compound = "Cc1cc(C(=O)O)c(NC(=O)c2ccccc2)s1"
observation_type = "activity at 100 µM"
result_value = "81%"

[[record]]
compound = "COc1ccc(OCC2c3cc(OC)c(OC)cc3CCN2C(=O)N2CCOCC2)cc1 (stereo not drawn)"
observation_type = "activity at 100 µM"
result_value = "78%"

[[record]]
compound = "COc1cccc(OCC2c3cc(OC)c(OC)cc3CCN2C(=O)c2cccc(Cl)c2)c1 (stereo not drawn)"
observation_type = "activity at 100 µM"
result_value = "88%"


Please find the next compound below.
Prompt: Reported activity at 100 µM, compound COc1ccc(OCC2c3cc(OC)c(OC)cc3CCN2C(=O)c2ccncc2)cc1 (stereo not drawn) : ____
Completion: 87%
